# TARGET ENTITY: T1, 6×His-tagged human LILRB2 ECD recombinant protein (human, UniProt Q8N423 22-458, limits assumed)
# T1 construct: Bought protein; not shown: 6×His-tag
# T1 sequence (Q8N423 22-458 limits assumed): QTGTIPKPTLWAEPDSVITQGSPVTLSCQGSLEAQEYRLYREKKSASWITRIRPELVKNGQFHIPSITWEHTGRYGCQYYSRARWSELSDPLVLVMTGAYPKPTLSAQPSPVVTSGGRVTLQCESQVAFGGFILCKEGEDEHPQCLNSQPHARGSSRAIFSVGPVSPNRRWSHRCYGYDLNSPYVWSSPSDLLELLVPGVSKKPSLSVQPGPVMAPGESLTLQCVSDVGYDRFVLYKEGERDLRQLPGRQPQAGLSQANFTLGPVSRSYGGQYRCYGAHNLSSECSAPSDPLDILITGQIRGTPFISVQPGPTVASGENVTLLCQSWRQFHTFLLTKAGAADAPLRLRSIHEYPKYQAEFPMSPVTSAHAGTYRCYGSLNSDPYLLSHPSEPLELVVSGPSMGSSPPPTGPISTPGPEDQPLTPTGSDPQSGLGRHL
# PROTOCOL NOTES: Octet, 1:1 model; column printed as 'kd (1/s)', heads of c4 and c5 are swapped
RECORDED ENDPOINT: kon (M⁻¹ s⁻¹)
Kindly provide the numeric value in M⁻¹ s⁻¹ only, without the unit symbol.

Use the examples below as a reference point.
[[record]]
binder = "hu043.02 (antibody, V domains shown, Humanized human IgG4 antibody with S228P in the constant region; also called hu043VH7 / hu043VL4) VH: QVQLVQSGAEVKKPGASVKVSCKASGYTFTSYWMYWVRQAPGQGLEWIGHINPSSGYTKYNQKFKDRVTMTADTSTSTVYMELSSLRSEDTAVYYCARDPNWDNYWGQGTTVTVSS VL: DIVMTQSPSSLSASVGDRVSITCKASQDVSIAVAWYQQKPGKAPKLLIYSASYRYTGVPDRFSGSGSGTDFTFTISSLQPEDIATYYCQQHYSTPYTFGGGTKLEIK"
unit_descriptor = "M⁻¹ s⁻¹"
measured_value = 517000

[[record]]
binder = "hu043.06 (antibody, V domains shown, Humanized human IgG4 antibody with S228P in the constant region; also called hu043VH8 / hu043VL2) VH: QVQLQQSGAEVKKPGASVKLSCKASGYTFTSYWMYWVRQRPGQGLEWIGHINPSSGYTKYNQKFKDRATLTADTSTSTAYMELSSLRSEDTAVYYCARDPNWDNYWGQGTTVTVSS VL: DIQMTQSPSSLSASVGDRVTITCKASQDVSIAVAWYQQKPGKAPKLLIYSASYRYTGVPSRFSGSGSGTDFTFTISSLQPEDIATYYCQQHYSTPYTFGGGTKLEIK"
unit_descriptor = "M⁻¹ s⁻¹"
measured_value = 512000


Please look at the following binder next.
Query: Need kon of hu043.01 (antibody, V domains shown, Humanized human IgG4 antibody with S228P in the constant region; also called hu043VH6 / hu043VL4) VH: QVQLVQSGAEVKKPGASVKVSCKASGYTFTSYWMYWVRQAPGQGLEWIGHINPSSGYTKYNQKFKDRATLTADTSTSTAYMELSSLRSEDTAVYYCARDPNWDNYWGQGTTVTVSS VL: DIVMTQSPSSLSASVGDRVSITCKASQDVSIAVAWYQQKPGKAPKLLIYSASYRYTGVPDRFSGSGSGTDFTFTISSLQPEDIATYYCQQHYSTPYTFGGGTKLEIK , thanks.
Reply: 516000

Hello, the source for this data is patent US20260008847A1, in case you need it.
